Sourced from ChEMBL document CHEMBL4184317

# Assayed target: Transcription intermediary factor 1-alpha (Homo sapiens, UniProt O15164)
# Sequence (O15164 whole entry): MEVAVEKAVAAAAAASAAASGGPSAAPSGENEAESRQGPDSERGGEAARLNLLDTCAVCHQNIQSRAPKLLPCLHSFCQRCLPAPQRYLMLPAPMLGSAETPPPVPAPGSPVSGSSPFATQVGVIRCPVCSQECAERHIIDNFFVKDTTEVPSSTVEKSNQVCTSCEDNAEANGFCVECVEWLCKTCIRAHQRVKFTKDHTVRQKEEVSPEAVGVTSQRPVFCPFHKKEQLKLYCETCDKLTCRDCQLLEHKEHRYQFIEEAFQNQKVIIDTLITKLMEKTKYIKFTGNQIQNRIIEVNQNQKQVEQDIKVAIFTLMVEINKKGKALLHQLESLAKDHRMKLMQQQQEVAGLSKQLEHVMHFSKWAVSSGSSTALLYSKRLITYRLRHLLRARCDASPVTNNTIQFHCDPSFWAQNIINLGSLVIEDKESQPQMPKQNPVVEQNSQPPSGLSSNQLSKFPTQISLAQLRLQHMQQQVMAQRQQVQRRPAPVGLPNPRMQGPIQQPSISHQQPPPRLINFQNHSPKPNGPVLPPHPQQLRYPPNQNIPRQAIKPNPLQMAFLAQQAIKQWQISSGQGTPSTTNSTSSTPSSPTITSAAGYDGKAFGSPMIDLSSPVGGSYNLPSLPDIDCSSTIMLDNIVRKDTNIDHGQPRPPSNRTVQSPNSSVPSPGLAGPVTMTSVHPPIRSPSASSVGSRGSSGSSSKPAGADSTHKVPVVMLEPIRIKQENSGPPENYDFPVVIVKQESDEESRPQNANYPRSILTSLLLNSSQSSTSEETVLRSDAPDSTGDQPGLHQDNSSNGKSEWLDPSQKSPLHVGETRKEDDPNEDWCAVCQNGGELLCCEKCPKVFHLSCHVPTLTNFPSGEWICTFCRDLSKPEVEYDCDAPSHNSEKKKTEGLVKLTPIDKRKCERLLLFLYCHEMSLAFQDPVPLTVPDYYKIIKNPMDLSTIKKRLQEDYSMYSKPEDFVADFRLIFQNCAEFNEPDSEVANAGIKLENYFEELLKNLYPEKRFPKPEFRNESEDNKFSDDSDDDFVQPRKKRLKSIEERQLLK
# Assay remarks: Binding affinity to human partial length DNA-tagged TRIM24(PHD,Bromo.) expressed in bacteria by BROMOscan method
Value kind: Kd

[
  {
    "Compound string": "CC(=O)N1c2ccc(C3=CCNCC3)cc2N(Cc2ccccc2CO)C[C@@H]1C1CC1",
    "Value kind": "Kd",
    "Data value": "> 30.2 µM"
  }
]

###

# Assayed target: Chromatin remodeling regulator CECR2 (Homo sapiens, UniProt Q9BXF3)
# Sequence (Q9BXF3 whole entry): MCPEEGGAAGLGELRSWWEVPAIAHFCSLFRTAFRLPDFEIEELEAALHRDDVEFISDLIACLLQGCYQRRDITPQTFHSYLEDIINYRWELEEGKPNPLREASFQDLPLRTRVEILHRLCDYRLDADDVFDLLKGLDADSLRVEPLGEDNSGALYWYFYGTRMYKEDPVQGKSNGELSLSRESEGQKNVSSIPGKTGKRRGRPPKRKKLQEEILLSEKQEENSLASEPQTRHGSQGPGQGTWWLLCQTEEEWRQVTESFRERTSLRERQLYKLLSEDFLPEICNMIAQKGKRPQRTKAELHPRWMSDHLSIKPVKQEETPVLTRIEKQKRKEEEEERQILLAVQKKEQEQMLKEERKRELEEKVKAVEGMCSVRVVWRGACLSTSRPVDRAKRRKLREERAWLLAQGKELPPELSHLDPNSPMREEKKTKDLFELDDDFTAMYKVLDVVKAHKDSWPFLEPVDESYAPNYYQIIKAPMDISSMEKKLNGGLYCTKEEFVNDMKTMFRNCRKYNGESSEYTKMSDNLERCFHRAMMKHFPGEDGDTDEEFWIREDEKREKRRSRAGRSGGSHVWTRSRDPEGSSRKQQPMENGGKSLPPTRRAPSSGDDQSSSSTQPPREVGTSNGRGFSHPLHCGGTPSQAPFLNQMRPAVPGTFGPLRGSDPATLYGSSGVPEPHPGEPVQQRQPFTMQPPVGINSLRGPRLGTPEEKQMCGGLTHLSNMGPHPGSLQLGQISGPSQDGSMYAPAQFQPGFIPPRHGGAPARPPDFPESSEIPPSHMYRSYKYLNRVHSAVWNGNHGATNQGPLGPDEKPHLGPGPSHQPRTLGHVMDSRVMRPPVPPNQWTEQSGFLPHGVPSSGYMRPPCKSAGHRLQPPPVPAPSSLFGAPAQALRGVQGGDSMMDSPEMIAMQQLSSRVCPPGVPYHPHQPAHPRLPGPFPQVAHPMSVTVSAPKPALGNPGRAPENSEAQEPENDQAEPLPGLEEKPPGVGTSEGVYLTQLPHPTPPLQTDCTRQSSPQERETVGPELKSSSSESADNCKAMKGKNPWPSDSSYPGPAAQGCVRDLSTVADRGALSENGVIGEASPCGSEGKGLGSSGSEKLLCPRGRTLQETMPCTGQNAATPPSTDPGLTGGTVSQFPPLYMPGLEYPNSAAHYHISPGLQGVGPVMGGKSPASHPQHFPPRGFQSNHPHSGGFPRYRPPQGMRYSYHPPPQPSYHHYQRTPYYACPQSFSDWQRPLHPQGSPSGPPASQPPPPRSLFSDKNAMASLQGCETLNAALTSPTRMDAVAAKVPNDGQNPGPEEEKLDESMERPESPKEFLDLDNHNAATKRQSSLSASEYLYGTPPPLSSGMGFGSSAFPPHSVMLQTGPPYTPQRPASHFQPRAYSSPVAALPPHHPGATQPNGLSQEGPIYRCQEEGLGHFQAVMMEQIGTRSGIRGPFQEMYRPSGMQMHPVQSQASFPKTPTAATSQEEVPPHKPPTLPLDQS
# Assay remarks: Binding affinity to human partial length DNA-tagged CECR2 expressed in bacteria by BROMOscan method
pKd: −log10 of the molar value.

[
  {
    "Compound string": "CC(=O)N1c2ccc(C3=CCNCC3)cc2N(Cc2ccccc2CO)C[C@@H]1C1CC1",
    "Assayed target": "Chromatin remodeling regulator CECR2 (Homo sapiens, UniProt Q9BXF3)",
    "pKd": "< 4.52"
  }
]
